# GI50 values compiled below
Test system: M14
Experiment: NCI tumour cell line growth inhibition, 48 h
Active and inactive are the calls of the source. Rule as the data show it: active = GI50 up to about 1.1 µM and inactive = higher.

CC1CC(c2ccccc2)=Nc2ccccc2S1 (stereo not given)	> 100 µM (inactive)

May I ask what GI50 has been recorded for CN(C)CC1CCCC/C1=N\OC(=O)c1ccccc1 (stereo not given) ? > 100 µM (inactive)

May I ask what GI50 has been recorded for C=C1CC/C=C(\C)C(=O)C[C@@H]2[C@@H]1CC2(C)C [BUDDLEDIN C] ? 3.69 µM (inactive)

May I ask what GI50 has been recorded for "CCOC(=O)N1CCN(c2nc(C)n(-c3ccccc3)c(=S)c2C#N)CC1" ? > 91 µM (inactive)

May I ask what GI50 has been recorded for COc1ccc(C2CC(c3ccccc3)=Nc3c(-c4ccccc4)nnn32)cc1 (stereo not given) ? > 100 µM (inactive)

May I ask what GI50 has been recorded for O=c1c2ccccc2nc(-c2cccc(Cl)c2)n1NCC1(O)OCC(O)C(O)C1O (stereo not given) ? > 100 µM (inactive)

May I ask what GI50 has been recorded for Cc1ccc(O)c(C2=CC3=NNC(=O)C3C(c3cccc(Cl)c3)C2)c1 (stereo not given) ? 52 µM (inactive)

May I ask what GI50 has been recorded for COC(=O)[C@H](Cc1ccccc1)NP(=O)(O)OCC1OC(n2cc(C)c(=O)[nH]c2=O)CC1N=[N+]=[N-] (stereo not given in full) ? > 100 µM (inactive)

May I ask what GI50 has been recorded for CC1C(=O)OCC2=CCN3CCC(OC(=O)C(C)C1(C)O)C23 (stereo not given) ? > 100 µM (inactive)

May I ask what GI50 has been recorded for "Cc1n[nH]c(=O)n1/N=C/c1ccncc1" ? > 100 µM (inactive)

====

System: OVCAR-4
Assay: NCI tumour cell line growth inhibition, 48 h
Active and inactive are the calls of the source. Cut-off read from the data, not from the text of the source: active = GI50 up to about 1.1 µM and inactive = higher.
# GI50 values compiled below

O=C1C(Cl)C(c2cc(Br)cc(Br)c2O)N1n1cnc2ccccc2c1=O (centres undefined)	9.55 µM (inactive)
CCCCCCCc1cscc1-c1cscc1Br	33.7 µM (inactive)
CCOC(=O)C1=C(C)N(c2ccc(C)cc2)C2=C(C(=O)N(c3ccccc3)C2c2ccccc2)C1c1ccccc1 (centres undefined)	11.3 µM (inactive)
C=CCNc1nc(C#N)c(N)s1	> 10 µM (inactive)
COc1cc(C2c3c(ccc4ccccc34)C(=O)C3CCC(=O)N32)cc(OC)c1O (centres undefined)	> 25 µM (inactive)

May I ask what GI50 has been recorded for COC(=O)C12C3C4C1C1C2C3C41C(=O)O (centres undefined) ? > 100 µM (inactive)

May I ask what GI50 has been recorded for CC1=CC(=O)CC2(C)CC[C@@H]3C[C@]12OC3(C)C (some centres undefined) ? > 100 µM (inactive)

May I ask what GI50 has been recorded for "CCCCOC(=O)CNC(=O)OC/C=C/C#CC#C/C=C/COC(=O)NCC(=O)OCCCC" ? > 10 µM (inactive)

====

System: SW-620
Assay: NCI tumour cell line growth inhibition, 48 h
The source made the active and inactive calls. Rule as the data show it: active = GI50 up to about 1.1 µM and inactive = higher.
recorded_metric: GI50

For orientation, consider the following solved cases.
Cc1nc(Nc2ccc([N+](=O)[O-])cc2)sc1C(/C=C/c1ccc(N(C)C)cc1)=N/NC(=O)c1ccccc1	45.6 µM (inactive)
C=C1CC(CNc2cc(Cl)nc(N)n2)C1	> 100 µM (inactive)
Nc1nc(Cl)cc(NCCCCCCCCNc2cc(Cl)nc(N)n2)n1	36.8 µM (inactive)
CCCCOC(=O)CNC(=O)OC/C=C/C#CC#C/C=C/COC(=O)NCC(=O)OCCCC	> 100 µM (inactive)
Cc1c(C(=O)C/C(=N/NC(=O)c2ccccc2O)C(=O)Nc2ccccc2C(C)C)[n+]([O-])c2ccccc2[n+]1[O-]	35.4 µM (inactive)

May I ask what GI50 has been recorded for "CC(=O)NNc1nc(C)c(C(=O)NNC(=O)C(=O)Nc2ccc(Cl)cc2Cl)s1" ? 22.2 µM (inactive)

May I ask what GI50 has been recorded for "COc1cc(C=O)c(-c2cc3c(cc2C=O)OCO3)c(OC)c1OC" ? 94.6 µM (inactive)

May I ask what GI50 has been recorded for "Sc1ncc(-c2cncc(-c3cnc(S)nc3)n2)cn1" ? > 100 µM (inactive)

May I ask what GI50 has been recorded for "Cc1ccc(CCCC(=O)O)cc1C" ? > 100 µM (inactive)

May I ask what GI50 has been recorded for "O=C(/C(=C/c1ccc(Cl)cc1)c1ccccc1)c1ccccc1" ? 17.4 µM (inactive)

May I ask what GI50 has been recorded for "COc1nc(N=P(c2ccccc2)(c2ccccc2)c2ccccc2)cc(=O)n1C" ? > 100 µM (inactive)
